- tested_system: hMCP-1 receptor (Homo sapiens, UniProt P41597)
- Construct: endogenous in cells
- Sequence (P41597 1-360 isoform P41597-2): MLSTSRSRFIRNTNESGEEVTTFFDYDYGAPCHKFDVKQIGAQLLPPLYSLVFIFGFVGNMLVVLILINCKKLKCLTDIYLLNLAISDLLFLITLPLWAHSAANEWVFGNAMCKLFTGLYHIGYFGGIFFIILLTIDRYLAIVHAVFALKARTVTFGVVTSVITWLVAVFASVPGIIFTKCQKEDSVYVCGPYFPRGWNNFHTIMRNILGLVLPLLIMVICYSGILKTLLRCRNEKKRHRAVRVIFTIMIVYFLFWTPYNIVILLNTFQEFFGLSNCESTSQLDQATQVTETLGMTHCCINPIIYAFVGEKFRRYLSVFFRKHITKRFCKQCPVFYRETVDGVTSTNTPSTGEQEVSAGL
- protocol_summary: 125I MCP-1 binding to human peripheral blood mononuclear cells (PBMCs)
- setup_conditions: 100 pM 125I-labeled MCP-1, 37° C. 60 minutes
property_measured: IC50 (nM)
Report as a plain number; the unit nM is understood.

Sure, the documented IC50 for CS(=O)(=O)NCCNC(=O)c1cccc2c1cc(C(=O)O)n2Cc1ccc(Cl)c(Cl)c1 [Compound 9] is 640
